- experimental.details: amyloid nucleation score (Sup35N fusion, yeast selection) (log enrichment); library NNK3; higher = more nucleation; inactive = no reads after selection;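 further: zero at mode of non-aggregating sequences after 7 days selection at 30°C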
parameter.measured: amyloid nucleation score

Below: 5 substances and their reported amyloid nucleation score.
substance=RHLDNFNINVTLNLSFRVGM value_observed=2.52
substance=YYTWVCECSYWHSVFM value_observed=inactive
substance=YYLFWVAFDMMLRLRFFVMD value_observed=inactive
substance=YFKRCQGNEQFSRNRNANGA value_observed=inactive
substance=VCRRTGSKITFGQWKVYFSS value_observed=inactive

Exam item: Tell us which amyloid nucleation score value is on record for YGRRMAHAGGVTGYGNLWCH
Marked response: inactive

Exam item: Tell us which amyloid nucleation score value is on record for INGSNNATCWVSLSIMKARI
Marked response: inactive

Exam item: Tell us which amyloid nucleation score value is on record for NYLRLFLISIAYKSVLSVML
Marked response: inactive

Exam item: Tell us which amyloid nucleation score value is on record for IIFNFFSRVLELLMLGYPYT
Marked response: inactive

Source of measurements: the supplement of paper PMC12042874
